All values here come from ChEMBL document CHEMBL4346753.

Activity reference
Organism: Rattus norvegicus
experimentDescription: Antagonist activity at AT1 receptor in rat portal vein assessed as reduction in […] contraction at 10 uM incubated for 1 min relative to control
Set-up: scale not given: the % may be the effect or the level left
Form entry: value (%) — number only.

Br.c1ccc(-c2ccc(CN3C4=NCCCN4c4ccccc43)cc2)cc1    14.6
Br.N#Cc1ccccc1-c1ccc(CN2C3=NCCCN3c3ccccc32)cc1    40.4
O=C(O)c1ccccc1-c1ccc(CN2C3=NCCCN3c3ccccc32)cc1    7.5
O=C(O)c1ccccc1-c1ccc(CN2C3=NCCCCN3c3ccccc32)cc1    20
Br.CCOC(=O)c1ccc(CN2C3=NCCN3c3ccccc32)cc1    5.6
O=C(O)c1ccccc1-c1ccc(CN2C3=NCCN3c3ccccc32)cc1    -1.7

Supply measured Activity of COC(=O)c1ccccc1-c1ccc(CN2C3=NCCN3c3ccccc32)cc1 in your reply. -5.7

Output Activity of Br.COC(=O)c1ccccc1-c1ccc(CN2C3=NCCCCN3c3ccccc32)cc1 33.3

Look up and report measured Activity for this entry: Br.O=C(O)c1ccc(CN2C3=NCCN3c3ccccc32)cc1 11.1

Look up and report measured Activity for this entry: CCCCc1nc(Cl)c(CO)n1Cc1ccc(-c2ccccc2-c2nnn[nH]2)cc1 99

====

Species on record: Rattus norvegicus
experimentDescription: Antagonist activity at AT1 receptor in rat portal vein assessed as reduction in […] contraction at 10 uM incubated for 1 min relative to control
Design: scale not given: the % may be the effect or the level left
quantityName: Activity (%)
Write the value in % as a bare number.

Past entries and their recorded results:
Br.c1ccc(-c2ccc(CN3C4=NCCCCN4c4ccccc43)cc2)cc1    13.5
Br.N#Cc1ccc(C(=O)CN2C3=NCCN3c3ccccc32)cc1    0
Br.c1ccc(-c2ccc(CN3C4=NCCN4c4ccccc43)cc2)cc1    5.2
Br.N#Cc1ccccc1-c1ccc(CN2C3=NCCN3c3ccccc32)cc1    21.9
COC(=O)c1ccccc1-c1ccc(CN2C3=NCCCN3c3ccccc32)cc1    5.9

Lab note: next compound to report on.
Quote Activity reported for Br.N#Cc1ccccc1-c1ccc(CN2C3=NCCCCN3c3ccccc32)cc1 please. 0

====

experimentDescription: Activation of recombinant rhesus monkey AMPK expressed in Sf9 cells using SAMS peptide as substrate preincubated for 30 mins followed by substrate addition and measured after 60 mins by fluorescence based assay
Design: species or system Macaca mulatta
quantityName: EC50

Supply measured EC50 of O[C@@H]1CO[C@H]2[C@@H]1OC[C@H]2Oc1nc2nc(-c3ccc(-c4ccccc4)cc3)c(Cl)cc2[nH]1 in your reply. 0.001 to 0.06 µM

====

targetOrSystem: 5'-AMP-activated protein kinase
experimentDescription: Activation of recombinant mouse AMPK expressed in Sf9 cells using SAMS peptide as substrate preincubated for 30 mins followed by substrate addition and measured after 60 mins by fluorescence based assay
pEC50: −log10 of the molar value.
quantityName: pEC50

Quote pEC50 reported for O[C@@H]1CO[C@H]2[C@@H]1OC[C@H]2Oc1nc2nc(-c3ccc(-c4ccccc4)cc3)c(Cl)cc2[nH]1 please. 7.22 to 9.00

====

Below, each entry is listed alongside its reported Activity.
targetOrSystem: AMP-activated protein kinase (AMPK) alpha-1/beta-1/gamma-1 (Homo sapiens) (UniProt P54619+Q9Y478+Q13131)
Sequence (P54619 whole entry): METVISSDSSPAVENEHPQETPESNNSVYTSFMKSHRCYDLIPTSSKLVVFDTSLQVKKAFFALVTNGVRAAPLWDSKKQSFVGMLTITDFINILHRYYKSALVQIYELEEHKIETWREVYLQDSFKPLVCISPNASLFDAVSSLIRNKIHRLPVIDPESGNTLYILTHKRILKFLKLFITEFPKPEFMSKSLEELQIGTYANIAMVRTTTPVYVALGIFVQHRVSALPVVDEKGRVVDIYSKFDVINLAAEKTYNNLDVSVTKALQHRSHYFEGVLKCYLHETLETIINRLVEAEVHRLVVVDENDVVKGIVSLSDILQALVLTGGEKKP
Sequence (Q13131 whole entry partner): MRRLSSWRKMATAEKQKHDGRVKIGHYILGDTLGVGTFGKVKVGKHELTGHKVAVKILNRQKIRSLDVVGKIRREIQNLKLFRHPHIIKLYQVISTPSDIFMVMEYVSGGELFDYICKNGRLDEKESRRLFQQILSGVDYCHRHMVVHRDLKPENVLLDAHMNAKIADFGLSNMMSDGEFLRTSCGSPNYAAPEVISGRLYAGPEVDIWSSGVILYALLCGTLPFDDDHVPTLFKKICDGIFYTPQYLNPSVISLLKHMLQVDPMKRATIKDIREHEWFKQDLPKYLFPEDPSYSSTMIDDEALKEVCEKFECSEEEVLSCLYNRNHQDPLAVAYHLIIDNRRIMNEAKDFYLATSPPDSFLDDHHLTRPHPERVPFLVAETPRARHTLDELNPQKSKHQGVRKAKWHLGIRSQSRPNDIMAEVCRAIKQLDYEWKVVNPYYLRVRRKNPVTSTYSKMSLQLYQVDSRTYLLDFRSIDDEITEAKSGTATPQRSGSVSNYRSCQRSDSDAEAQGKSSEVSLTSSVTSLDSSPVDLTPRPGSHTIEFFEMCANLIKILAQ
Sequence (Q9Y478 2-270 partner limits assumed): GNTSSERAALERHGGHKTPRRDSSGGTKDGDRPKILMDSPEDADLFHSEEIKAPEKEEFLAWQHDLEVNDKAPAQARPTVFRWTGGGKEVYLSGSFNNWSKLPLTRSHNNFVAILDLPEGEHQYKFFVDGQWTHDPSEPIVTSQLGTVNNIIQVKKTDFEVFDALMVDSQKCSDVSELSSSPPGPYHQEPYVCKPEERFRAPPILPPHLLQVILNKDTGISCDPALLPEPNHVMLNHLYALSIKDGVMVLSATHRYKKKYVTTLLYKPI
experimentDescription: Activation of C-terminal His tagged human recombinant full length AMPK alpha1/beta1/gamma1 expressed in baculovirus infected Sf9 cells using SAMS peptide as substrate at 100 uM incubated for 60 mins by ADP-Glo luminescence assay relative to control
Just the number please, in %, no unit attached.

Br.c1ccc(-c2ccc(CN3C4=NCCN4c4ccccc43)cc2)cc1    54.2
Br.CCOC(=O)c1ccc(CN2C3=NCCN3c3ccccc32)cc1    0.6
Cc1ccc(OCCSc2ncccn2)c(Br)c1    157
COC(=O)c1ccccc1-c1ccc(CN2C3=NCCCN3c3ccccc32)cc1    21.7

Proceeding to the next compound to report its Activity.
Note Activity for the compound shown: Br.COC(=O)c1ccccc1-c1ccc(CN2C3=NCCCCN3c3ccccc32)cc1 -11.3
